MEASURED ON: monkey FXI (in monkey plasma) (monkey)
EXPERIMENT: cell-based or functional assay
PARAMETER MEASURED: aPTT1.5 (concentration prolonging aPTT by 50% relative to PBS), monkey blood (µg/mL)
Express it in µg/mL; write the number only.

Please give the documented aPTT1.5 (concentration prolonging aPTT by 50% relative to PBS), monkey blood of BAY1213790 (antibody, human IgG1, kappa, V domains shown) VH: EVQLLESGGGLVQPGGSLRLSCAASGFTFSQYGMDWVRQAPGKGLEWVSGIGPSGGSTVYADSVKGRFTISRDNSKNTLYLQMNSLRAEDTAVYYCTRGGPYYYYGMDVWGQGTTVTVSS VL: DIQMTQSPSSLSASVGDRVTITCQASQDISNYLNWYQQKPGKAPKLLIYDASNLETGVPSRFSGSGSGTDFTFTISSLQPEDIATYYCQQADSFPVTFGGGTKVEIKR 2.73

Provide aPTT1.5 (concentration prolonging aPTT by 50% relative to PBS), monkey blood value for the following binder: antibody 3871 (antibody, V domains shown, Humanized from 3807: VH is 3807-VH1 and VL is 3807-VL3) VH: QVQLVQSGAEVKKPGSSVKVSCKASGFNIKDDYMHWVRQAPGQGLEWMGWIDPENGDTEYASKFQGRVTITADESTSTAYMELSSLRSEDTAVYYCLYGNFYYFDYWGQGTTVTVSS VL: EIVLTQSPATLSLSPGERATLSCSASSSINYMHWYQQKPGQAPKRWIYDTSKLASGVPARFSGSGSGTDFTLTISSLEPEDFAVYYCHQRSFSPLTFGQGTKLEIK 1.12

Origin of measurements: patent US20230220111A1
